All values here come from the RNAGym collection of RNA variant scans (doi:10.1126/science.aae0568).

B1: tRNA (parent)
chain: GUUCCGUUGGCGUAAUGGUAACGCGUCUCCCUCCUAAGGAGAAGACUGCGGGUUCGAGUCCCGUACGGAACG

Variants of: B1
Assay: yeast fitness relative to wild type (ratio to wild type); higher = fitter; tRNA-Arg(CCU), competitive growth, 37 C, YPD
Variants at the floor of the assay were thinned out.
measurement_name: yeast fitness
Lab note: jot down the number only; don't add units.

Task item: Please give the documented yeast fitness of G10A U13A
Reply: 0.684

Task item: // Input: G9A U47A A69U . Output its yeast fitness only.
Reply: 0.676

Task item: Query yeast fitness for G12C C22U A43C G68C
Reply: 0.556

Task item: Report yeast fitness for C27U U35C A43C A69U
Reply: 0.62

Task item: Given the variant C62A A65U A70U , write its reported yeast fitness.
Reply: 0.531

Task item: Fill in reported yeast fitness for this entry: C29U U47A
Reply: 0.795

Task item: Output yeast fitness of U47C U54C
Reply: 0.843

Task item: # return recorded yeast fitness for input A57G G58C
Reply: 1.03

Task item: Please look at this variant and report its yeast fitness: U8C C22A
Reply: 0.932

Task item: Provide yeast fitness value for the following variant: U2G U13A C22U
Reply: 0.579

Task item: # return recorded yeast fitness for entry U13A G63A
Reply: 0.853

Task item: Respond only with yeast fitness recorded for G18A A69C
Reply: 0.926

Task item: Look up and state reported yeast fitness for U7G G67C
Reply: 0.856

Task item: Return yeast fitness for the following variant: G12A U35C
Reply: 0.83

Task item: Recall and state the measured yeast fitness for U8C A65C .
Reply: 0.964

Task item: Return value of yeast fitness for input A42C G63C , no commentary.
Reply: 0.681

Task item: Using the record for C27G C29G C34U C55U C61G , state its measured yeast fitness.
Reply: 0.65

Task item: Please report yeast fitness for the following variant: G6A G38C
Reply: 0.808

Task item: State its yeast fitness: A15U C27G C49A
Reply: 0.518

Task item: Give a short answer stating reported yeast fitness for C33U A45U G68A .
Reply: 0.67

Task item: For G58A C61A C62G , write its yeast fitness.
Reply: 0.711

Task item: Supply yeast fitness value. Item: U28C C55U G67C
Reply: 0.557

Task item: Give yeast fitness for the following variant: U7G C61U G68A
Reply: 0.533

Task item: Please give the documented yeast fitness of G12A C27U C30G C55U A57C
Reply: 0.547

Task item: Report yeast fitness, nothing else, for this variant: C4A A20C C34A G39C A43U
Reply: 0.512

Task item: Given U7C C33A G58C G67A , respond with its yeast fitness.
Reply: 0.602

Task item: Tell me measured yeast fitness for C11U C27U C46U A57U please.
Reply: 0.647

Task item: Report measured yeast fitness; entry is C5A C22A G56A
Reply: 0.525

Task item: Return yeast fitness (reported value) for this variant: C4G C30U A42U G50C C62A
Reply: 0.511

Task item: Name the recorded yeast fitness of the item C31G A37U in your answer.
Reply: 0.728

Task item: Return the recorded yeast fitness value; entry: C30G G67U
Reply: 0.589

Task item: Identify yeast fitness associated with the variant C31G A70C
Reply: 0.689
